B1: Twister Ribozyme (parent)
chain: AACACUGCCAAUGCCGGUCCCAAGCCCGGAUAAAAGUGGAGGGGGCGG

Variants of: B1
Assay: self-cleavage, relative activity (ratio to wild type); higher = more cleavage; co-transcriptional
Classification by self-cleavage follows these ranges: label 0: < 0.1; label 1: ≥ 0.1 and < 0.3; label 2: ≥ 0.3

The examples below pair each entry with its known result.
A23G G36U    label 0
A10C G24U    label 0
A11G U37G    label 2
G16U C26A    label 2
A23C C46U    label 2

Data request: Could you place A23C G47C in its proper category? Many thanks.
Data returned: label 1

Data request: Which category does the recorded self-cleavage put A2U U31G in?
Data returned: label 2

Data request: GET /class?item= G13U G48A
Data returned: label 2

Data request: Which self-cleavage category applies to C3U A11C here?
Data returned: label 1

The reported numbers originate from the RNAGym collection of RNA variant scans (doi:10.7554/elife.80360).
